Could you please report measured pKd for the items listed next?
# target or system: T1, AFP158/HLA-A*02:01 complex (human)
# T1 construct: flowed over the chip in SPR; also called AFP158 pro
# assay name: SPR, scFv captured, pMHC in flow;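 also: complex injected at several concentrations over crude scFv, association then running-buffer dissociation, KD estimated from kinetic on- and off-rate constants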
One number for each entry, as −log10 of the molar value.

Completed entries (count: 2):
[[record]]
binder = "HG108S (scFv, AS170036 VL1VH1 scFv mutein; also called AS170036 VL1VH1-VHG108S) scFv: QSALTQPRSVSGSPGQSVTISCAGTSSDVGSENYVSWYQQHPGKAPKLMIYQVNKRASGVPDRFSGSKSGNTASLTISGLQAEDEADYYCASYRSSDHNIVFGGGTKLTVLGGGGSGGGGSGGGGSEVQLVESGGGLVQPGGSLRLSCAASGFTFSSYAMSWVRQAPGKGLEWVSTINSGTGSPYYADSVKGRFTISRDNSKNTLYLQMNSLRAEDTAVYYCAKNFFDGSWFLSPPAMDYWGQGTLVTVSSHHHHHH"
result_number = 7.02

[[record]]
binder = "HP110A (scFv, AS170036 VL1VH1 scFv mutein) scFv: QSALTQPRSVSGSPGQSVTISCAGTSSDVGSENYVSWYQQHPGKAPKLMIYQVNKRASGVPDRFSGSKSGNTASLTISGLQAEDEADYYCASYRSSDHNIVFGGGTKLTVLGGGGSGGGGSGGGGSEVQLVESGGGLVQPGGSLRLSCAASGFTFSSYAMSWVRQAPGKGLEWVSTINSGTGSPYYADSVKGRFTISRDNSKNTLYLQMNSLRAEDTAVYYCAKNFFDGSWFLGPAAMDYWGQGTLVTVSSHHHHHH"
result_number = 6.68


Query: Using the record for HS57H (scFv, AS170036 VL1VH1 scFv mutein; also called AS170036 VL1VH1-VHS57H) scFv: QSALTQPRSVSGSPGQSVTISCAGTSSDVGSENYVSWYQQHPGKAPKLMIYQVNKRASGVPDRFSGSKSGNTASLTISGLQAEDEADYYCASYRSSDHNIVFGGGTKLTVLGGGGSGGGGSGGGGSEVQLVESGGGLVQPGGSLRLSCAASGFTFSSYAMSWVRQAPGKGLEWVSTINSGTGHPYYADSVKGRFTISRDNSKNTLYLQMNSLRAEDTAVYYCAKNFFDGSWFLGPPAMDYWGQGTLVTVSSHHHHHH , report its pKd.
Reply: 7.46
